Target: CFTR-mediated chloride transport (Homo sapiens, UniProt P13569)
Sequence (P13569 whole entry, looked up): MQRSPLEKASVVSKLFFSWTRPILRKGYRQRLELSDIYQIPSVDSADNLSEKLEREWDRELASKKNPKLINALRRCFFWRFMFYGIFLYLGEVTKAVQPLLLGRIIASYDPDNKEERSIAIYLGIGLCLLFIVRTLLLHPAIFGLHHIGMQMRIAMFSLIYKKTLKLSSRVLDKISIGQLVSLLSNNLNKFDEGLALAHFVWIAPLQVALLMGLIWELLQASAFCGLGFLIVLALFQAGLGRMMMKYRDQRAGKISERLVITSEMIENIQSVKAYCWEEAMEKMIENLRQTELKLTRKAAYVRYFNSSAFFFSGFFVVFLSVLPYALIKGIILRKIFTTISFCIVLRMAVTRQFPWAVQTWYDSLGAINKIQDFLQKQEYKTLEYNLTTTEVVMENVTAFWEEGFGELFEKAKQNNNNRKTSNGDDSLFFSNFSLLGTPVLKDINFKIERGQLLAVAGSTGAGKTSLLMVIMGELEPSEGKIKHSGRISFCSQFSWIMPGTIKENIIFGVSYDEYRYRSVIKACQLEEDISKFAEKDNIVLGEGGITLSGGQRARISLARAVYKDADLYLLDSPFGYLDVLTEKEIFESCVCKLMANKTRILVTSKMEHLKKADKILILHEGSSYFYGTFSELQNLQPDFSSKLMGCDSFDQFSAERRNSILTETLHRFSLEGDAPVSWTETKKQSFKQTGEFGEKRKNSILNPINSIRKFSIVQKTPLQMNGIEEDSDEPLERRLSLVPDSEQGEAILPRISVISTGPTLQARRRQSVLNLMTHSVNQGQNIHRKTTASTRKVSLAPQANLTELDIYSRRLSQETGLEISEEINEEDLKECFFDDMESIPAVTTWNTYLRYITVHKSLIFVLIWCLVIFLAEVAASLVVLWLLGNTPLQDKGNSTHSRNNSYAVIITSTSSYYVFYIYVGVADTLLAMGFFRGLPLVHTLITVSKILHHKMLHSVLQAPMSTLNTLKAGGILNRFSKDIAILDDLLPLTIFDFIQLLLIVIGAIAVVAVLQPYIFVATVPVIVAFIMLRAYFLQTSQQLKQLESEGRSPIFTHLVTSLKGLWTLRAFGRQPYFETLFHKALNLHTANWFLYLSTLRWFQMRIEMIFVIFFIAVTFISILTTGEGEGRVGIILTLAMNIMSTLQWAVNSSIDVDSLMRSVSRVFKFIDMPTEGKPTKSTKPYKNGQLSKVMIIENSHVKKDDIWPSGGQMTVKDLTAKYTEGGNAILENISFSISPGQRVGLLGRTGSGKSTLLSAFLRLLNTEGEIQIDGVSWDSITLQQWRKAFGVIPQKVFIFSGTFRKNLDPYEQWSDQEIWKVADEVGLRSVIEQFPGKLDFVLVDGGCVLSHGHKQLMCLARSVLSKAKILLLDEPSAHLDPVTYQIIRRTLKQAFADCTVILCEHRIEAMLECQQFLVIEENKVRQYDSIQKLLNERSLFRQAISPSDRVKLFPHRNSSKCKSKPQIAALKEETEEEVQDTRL
Format: cell-based
Conditions: enteroid cells incubated with test compound 18-24 hours; acute 10 μM forskolin and 300 nM Compound III; % of chloride transport with 3 μM Compound A, 3 μM Compound II and 300 nM acute Compound III triple combination control
Description: Base medium (ADF+++) consisted of Advanced DMEM/Ham's F12, 2 mM Glutamax, 10 mM HEPES, […] penicillin/streptomycin. […] Enteroid cells were incubated with test compound in IEMM for 18-24 hours at 37° C., 95% humidity and 5% CO2. […] Chloride transport was initiated by addition of Chloride Free Dye Stimulation Solution and the fluorescence signal was read for 15 min. […]
measureName: Max. Activity

CC(C)(C)CCCC1CCN(c2ccc3c(n2)N2C[C@@H](CCCNc4cccc(n4)S(=O)(=O)NC3=O)CC2(C)C)C1=O (some centres unmarked)    +++ (+++ is >60%)
CC1(C)C[C@@H]2CCCNc3cccc(n3)S(=O)(=O)NC(=O)c3ccc(-n4ccc(OCC[C@@H](O)C5(C(F)(F)F)CC5)n4)nc3N1C2 (single isomer, unassigned) [Compound 297]    +++ (+++ is >60%)
CC(C)(C)CCCO[C@H]1CCN(c2ccc3c(n2)N2C[C@@H](CCCNc4cccc(n4)S(=O)(=O)NC3=O)CC2(C)C)C1=O (single isomer, unassigned) [Compound 247]    +++ (+++ is >60%)

Just for reference, patent US11866450B2 is where these values come from.
